Let's look at some compounds and their measured Ki.
Target sequence: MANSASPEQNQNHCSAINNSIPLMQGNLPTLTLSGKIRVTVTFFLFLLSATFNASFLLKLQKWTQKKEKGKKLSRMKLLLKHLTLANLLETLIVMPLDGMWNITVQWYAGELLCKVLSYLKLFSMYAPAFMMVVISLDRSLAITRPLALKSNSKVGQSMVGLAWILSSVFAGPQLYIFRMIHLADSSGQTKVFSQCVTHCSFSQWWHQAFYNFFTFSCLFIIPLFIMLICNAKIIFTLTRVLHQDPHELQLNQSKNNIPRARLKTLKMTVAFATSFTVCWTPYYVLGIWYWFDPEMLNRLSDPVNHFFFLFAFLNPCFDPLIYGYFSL

| compound | Ki |
| --- | --- |
| Cc1cc2c(cc1Cc1ccc(C(=O)NCC3CCC(CNC(=N)N)CC3)o1)C(C)(C)CCC2(C)C (stereo not drawn) | 40 nM |
| Cc1cc2c(cc1Cc1ccc(C(=O)NCc3ccc(CN(C)C)cc3)o1)C(C)(C)CCC2(C)C | 79 nM |
| Cc1cc2c(cc1Cc1ccc(C(=O)NC[C@H]3CC[C@@H](CNC(=N)N)CC3)o1)C(C)(C)CCC2(C)C | 40 nM |
